- System: C3H10T1/2 cells
- protocol.text: Adipocyte differentiation: lipid accumulation in induced C3H10T1/2 pre-adipocytes (Bodipy stain, Cellomics ArrayScan)
- Assay type: cell-based
- assay.setup: Mus musculus, C3H 10T1/2, 168 h; 1 μM compound + inducers of differentiation, 7 days; read-out: Cellular lipids (in % of differentiated cells)
measured.quantity: activity at 1 µM (%)
# value in %; strip the unit string

Task item: So what's the measured activity at 1 µM for this one? CC/C=C\C/C=C\C/C=C\C/C=C\C/C=C\CCCC(=O)O [EPA, eicosapentaenoic acid]
Reply: 86.6

Task item: Look up activity at 1 µM for this compound: Oc1ccc(C=Cc2cc(O)cc(O)c2)cc1 [Resveratrol, resveratrol]
Reply: 106

Task item: State the recorded activity at 1 µM for this entry: O=c1c(-c2ccc(O)cc2)coc2cc(O)cc(O)c12 [Genistein, genistein]
Reply: 112

Task item: So what's the measured activity at 1 µM for this one? CC/C=C\C/C=C\C/C=C\C/C=C\C/C=C\C/C=C\CCC(=O)O [DHA, docosahexaenoic acid]
Reply: 95.9

Task item: Which activity at 1 µM reading was recorded for the compound OCCc1ccc(O)c(O)c1 [Hydroxytyrosol] ?
Reply: 103
